tested on: SK-MEL-28 melanoma; experiment: NCI tumour cell line growth inhibition, 48 h
READOUT_NAME: GI50

1. COc1ccc2c(c1)C(=O)/C(=C/c1ccc([N+](=O)[O-])o1)O2: 1690 nM
2. CC1(N)CCN(c2cnc(-c3cccc(Cl)c3Cl)c(N)n2)CC1: 16300 nM
3. N#Cc1c(N)nc(N2CCOCC2)c(C#N)c1-c1ccccn1: > 100000 nM
4. C/C(=C\c1cc(C(F)(F)F)n(-c2ccc(N)cc2)n1)[C@@H]1C[C@@H]2O[C@]2(C)CCC[C@H](C)[C@H](O)[C@@H](C)C(=O)C(C)(C)[C@@H](O)CC(=O)O1: 547 nM
5. O=C1C=CC(=O)N1c1cccc(N2C(=O)C=CC2=O)c1: 1950 nM
